lowest inhibitory concentration in the stopped mixture, indirect linked RT-qPCR assay values for the binders below.
Target: proteinase K (UniProt P06873 106-384)
Sequence (P06873 106-384 limits assumed): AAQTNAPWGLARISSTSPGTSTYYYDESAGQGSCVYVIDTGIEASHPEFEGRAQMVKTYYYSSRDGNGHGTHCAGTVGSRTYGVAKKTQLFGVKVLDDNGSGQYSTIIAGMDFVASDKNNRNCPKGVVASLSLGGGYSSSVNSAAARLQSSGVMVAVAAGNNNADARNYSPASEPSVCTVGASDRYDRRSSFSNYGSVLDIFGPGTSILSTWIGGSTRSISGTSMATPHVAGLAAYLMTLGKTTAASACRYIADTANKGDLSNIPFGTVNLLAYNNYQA
Test: cell-based or functional assay
The star is where a group is joined. MeOSuc = COC(=O)CCC(=O)*; CH2Cl = ClC*
QUANTITY KIND: lowest inhibitory concentration in the stopped mixture, indirect linked RT-qPCR assay

BINDER	RESULT
APAL (HELM PEPTIDE1{[COC(=O)CCC(=O)[*:2]].A.P.A.L.[ClC[*:1]]}$$$$V2.0; SMILES COC(=O)CCC(=O)N[C@@H](C)C(=O)N1CCC[C@H]1C(=O)N[C@@H](C)C(=O)N[C@@H](CC(C)C)C(=O)CCl) [MeOSuc-AlaProAlaLeu-CH2Cl]	~0.5 mM
AAPF (HELM PEPTIDE1{[COC(=O)CCC(=O)[*:2]].A.A.P.F.[ClC[*:1]]}$$$$V2.0; SMILES COC(=O)CCC(=O)N[C@@H](C)C(=O)N[C@@H](C)C(=O)N1CCC[C@H]1C(=O)N[C@@H](Cc1ccccc1)C(=O)CCl, also called MeOSuc-AAPF-CH2Cl; MSFCK) [MeOSuc-AlaAlaProPhe-CH2Cl]	~0.05 mM
AAAPL (HELM PEPTIDE1{[COC(=O)CCC(=O)[*:2]].A.A.A.P.L.[ClC[*:1]]}$$$$V2.0; SMILES COC(=O)CCC(=O)N[C@@H](C)C(=O)N[C@@H](C)C(=O)N[C@@H](C)C(=O)N1CCC[C@H]1C(=O)N[C@@H](CC(C)C)C(=O)CCl, also called MeOSuc-AAAPL-CH2Cl; A3PL) [MeOSuc-AlaAlaAlaProLeu-CH2Cl]	~0.05 mM
MeOSuc-AAPV-CH2Cl (also called MeOSuc-AAPV-CH2Cl; MSVCK) [methoxysuccinyl-AlaAlaProVal-chloromethyl ketone]	~0.25 mM
